pKi: −log10 of the molar value.
Collected literature values of pKi measured for Carbonic anhydrase 1 (Homo sapiens).
valueType: pKi

Guide cases for pKi, answers given:
[
  {
    "testSmiles": "Cc1ccc(-n2c(-c3ccc(S(=O)(=O)c4ccc(Br)cc4)cc3)n[nH]c2=S)cc1",
    "pKi": 3.60
  },
  {
    "testSmiles": "N#Cc1ccc(-c2ccc(S(N)(=O)=O)cc2)cc1",
    "pKi": 5.87
  }
]

(a) NS(=O)(=O)c1ccc(CON2C(=O)c3cccnc3C2=O)cc1
(b) C[C@H](CCC(=O)NCc1ccc(S(N)(=O)=O)cc1)[C@H]1CC[C@H]2[C@@H]3[C@H](O)C[C@@H]4C[C@H](O)CC[C@]4(C)[C@H]3CC[C@]12C
(c) NS(=O)(=O)c1ccccc1NC(=O)CNCC(=O)O
(d) NCC(=O)Nc1c(S(N)(=O)=O)cc(S(N)(=O)=O)c(Cl)c1Cl
(e) Cc1ccc(COS(N)(=O)=O)cc1
// smallest pKi at index 0, largest at the end The labels, placed in the requested order, form the answer.
c, b, a, d, e
(c: 4.57, b: 5.46, a: 5.69, d: 6.28, e: 7.00)

====

Collected literature values of Ki measured for Carbonic anhydrase 1 (Homo sapiens, UniProt P00915).
valueType: Ki (µM)

[
  {
    "testSmiles": "NS(=O)(=O)c1ccc(NC(=O)CN2C(=O)NC3(CCCCC3)C2=O)cc1",
    "u": "µM",
    "assayResult": 0.0075
  },
  {
    "testSmiles": "CC(=O)OC[C@H]1O[C@@H](S(=O)(=O)NCCc2ccc(S(N)(=O)=O)cc2)[C@H](OC(C)=O)[C@@H](OC(C)=O)[C@H]1OC(C)=O",
    "u": "µM",
    "assayResult": 4.71
  },
  {
    "testSmiles": "NS(=O)(=O)c1ccc(CNC(=O)c2ccc(Cl)c(S(N)(=O)=O)c2)cc1",
    "u": "µM",
    "assayResult": 0.024
  },
  {
    "testSmiles": "CN(C)CCOC(=O)c1cccc(S(=O)(=O)Nc2nnc(S(N)(=O)=O)s2)c1",
    "u": "µM",
    "assayResult": 0.015
  },
  {
    "testSmiles": "NS(=O)(=O)c1nc2ccc(OC(=O)CN(CCOCCOCCN(CC(=O)O)CC(=O)Oc3ccc4nc(S(N)(=O)=O)sc4c3)CC(=O)O)cc2s1",
    "u": "µM",
    "assayResult": 0.021
  }
]

(a) CC1=NN(c2ccccc2)C(=O)/C1=N/Nc1ccc(S(N)(=O)=O)cc1
(b) N/C(=N\S(=O)(=O)c1ccccc1SCc1ccccc1)NNc1nc(Cl)nc(Nc2ccc(S(N)(=O)=O)cc2)n1
(c) Cc1cc(-c2ccccc2)cc(C)[n+]1CC(=O)NCc1ccc(S(N)(=O)=O)cc1
(d) NS(=O)(=O)c1ccc(CCOC(=O)CN(CCOCCOCCN(CC(=O)O)CC(=O)OCCc2ccc(S(N)(=O)=O)cc2)CC(=O)O)cc1
// smallest Ki at index 0, largest at the end The labels, placed in the requested order, form the answer.
b, d, a, c

====

Collected literature values of Ki measured for Carbonic anhydrase 1 (Homo sapiens).
valueType: Ki (µM)

Guide cases for Ki, answers given:
[
  {
    "testSmiles": "O=C(Nc1ccc(F)cc1)Nc1ccc2c(c1)B(O)OC2",
    "u": "µM",
    "Ki": 0.235
  },
  {
    "testSmiles": "NS(=O)(=O)NCc1ccccc1",
    "u": "µM",
    "Ki": 0.133
  },
  {
    "testSmiles": "NS(=O)(=O)c1ccc(N/C(S)=N\\CC(=O)O)cc1",
    "u": "µM",
    "Ki": 0.062
  },
  {
    "testSmiles": "NCC(=O)NCC(=O)Nc1cc(Cl)c(S(N)(=O)=O)cc1S(N)(=O)=O",
    "u": "µM",
    "Ki": 0.36
  }
]

(I) NS(=O)(=O)c1ccc(N2C(=O)c3c(Br)c(Br)c(Br)c(Br)c3C2=O)c(Cl)c1
(II) CCCn1c(S)nnc1-c1ccc(S(=O)(=O)c2ccccc2)cc1
(III) NS(=O)(=O)c1ccc(NNC(=O)CN(CCN(CCN(CC(=O)O)CC(=O)NNc2ccc(S(N)(=O)=O)cc2)CC(=O)O)CC(=O)O)cc1
Ordering criterion: Ki; begin with the maximum. The labels, placed in the requested order, form the answer.
II, III, I
(II: 290 µM, III: 9.8 µM, I: 0.208 µM)

====

Collected literature values of Ki measured for Carbonic anhydrase 1 (Homo sapiens, UniProt P00915).
valueType: Ki (µM)

Guide cases for Ki, answers given:
[
  {
    "testSmiles": "COc1ccc(O)c(CNc2ccc(C(=O)O)cc2)c1",
    "Ki / µM": 0.189
  },
  {
    "testSmiles": "CC(=O)CC(=O)Nc1ccc(S(N)(=O)=O)cc1",
    "Ki / µM": 0.0692
  },
  {
    "testSmiles": "C[C@H](CCC(=O)Oc1ccc2nc(S(N)(=O)=O)sc2c1)[C@H]1CC[C@H]2[C@@H]3CC[C@@H]4C[C@H](O)CC[C@]4(C)[C@H]3C[C@H](O)[C@]12C",
    "Ki / µM": 0.039
  },
  {
    "testSmiles": "NCCNCCCNCCN",
    "Ki / µM": 115
  },
  {
    "testSmiles": "NS(=O)(=O)c1ccc(Nc2nc(Cl)nc(NCCCCO)n2)cc1",
    "Ki / µM": 1.24
  }
]

(A) CN(CC(=O)Nc1ccc(S(N)(=O)=O)cc1)C(=N)N
(B) O=S(=O)(NO)c1ccc(Cl)cc1
(C) Cc1ccc(NS(N)(=O)=O)cc1
(D) CC(=O)OC[C@H]1O[C@@H](O[C@H]2[C@H](OC(C)=O)[C@@H](OC(C)=O)[C@H](SNCc3ccc(S(N)(=O)=O)cc3)O[C@@H]2COC(C)=O)[C@H](OC(C)=O)[C@@H](OC(C)=O)[C@H]1OC(C)=O
// smallest Ki at index 0, largest at the end The labels, placed in the requested order, form the answer.
C, D, A, B
(C: 0.015 µM, D: 6.83 µM, A: 14.6 µM, B: 27 µM)

(P) CN(C)CCOC(=O)c1ccc(S(=O)(=O)/N=c2/sc(S(N)(=O)=O)nn2C)cc1
(Q) NS(=O)(=O)c1ccc(CCN(Cc2ccccc2)C(=O)CCN(Cc2ccccc2)Cc2ccccc2)cc1
Response body: label of entry with the larger Ki; valid values P , Q . Your answer should be the label attached to the chosen record.
Q
(Q: 0.692 µM, P: 0.013 µM)

(P) O=C(Nc1ccc2c(c1)B(O)OC2)c1cc(C(=O)Nc2ccc3c(c2)B(O)OC3)cc(C(=O)Nc2ccc3c(c2)B(O)OC3)c1
(Q) NS(=O)(=O)OCC(F)(F)F
For the pair P and Q , which member has the lower Ki number? Your answer should be the label attached to the chosen record.
Q
(Q: 7.8 µM, P: 21.9 µM)

(A) N/C(=N\S(=O)(=O)c1ccccc1SCc1cccc2ccccc12)NNc1nc(Cl)nc(NCc2ccc(S(N)(=O)=O)cc2)n1
(B) CC(C)[C@H](NC(=S)Nc1ccc(S(N)(=O)=O)cc1)C(=O)O
Response body: label of entry with the larger Ki; valid values A , B . Your answer should be the label attached to the chosen record.
A

====

Collected literature values of Ki measured for Carbonic anhydrase 1 (Homo sapiens, UniProt P00915).
valueType: Ki (nM)

[
  {
    "compound": "CCc1cc(-c2ccccc2)cc(CC)[n+]1CC(=O)OCc1ccc(S(N)(=O)=O)cc1",
    "Ki, nM": 1700
  },
  {
    "compound": "CNCC(=O)Nc1ccc(S(=O)(=O)Nc2cccc(S(N)(=O)=O)c2)cc1",
    "Ki, nM": 51
  },
  {
    "compound": "COC(=O)C(C)S(=O)(=O)c1cc(Cl)c(C)cc1S(N)(=O)=O (stereo not drawn)",
    "Ki, nM": 5800
  },
  {
    "compound": "Cn1nc(S(N)(=O)=O)s/c1=N\\S(=O)(=O)c1ccc(NC(=O)CN)cc1",
    "Ki, nM": 15
  },
  {
    "compound": "CC(CN(C)C)OC(=O)c1cccc(S(=O)(=O)Nc2nnc(S(N)(=O)=O)s2)c1 (stereo not drawn)",
    "Ki, nM": 17
  },
  {
    "compound": "NS(=O)(=O)c1ccc(CCNCc2ccc(O)cc2)cc1",
    "Ki, nM": 92.1
  },
  {
    "compound": "NS(=O)(=O)c1nc2ccc(NC(=O)CN(CCN(CC(=O)O)c3ccccc3O)c3ccccc3O)cc2s1",
    "Ki, nM": 52
  },
  {
    "compound": "NS(=O)(=O)c1ccc(NC(=O)CSC(=S)N2CCCCC2)cc1",
    "Ki, nM": 27.5
  },
  {
    "compound": "COC(=O)CNc1nc(NCC(=O)OC)nc(Nc2ccc(S(N)(=O)=O)cc2)n1",
    "Ki, nM": 502
  },
  {
    "compound": "NS(=O)(=O)c1ccc(-c2ccc(Cn3cccn3)cc2)cc1",
    "Ki, nM": 6970
  }
]

(1) CC1=NN(c2ccc(C#N)cc2)C(=O)/C1=N/Nc1cccc(S(N)(=O)=O)c1
(2) Nc1c(Cl)cc(S(=O)(=O)Nc2nnc(S(N)(=O)=O)s2)cc1Br
(3) NS(=O)(=O)c1ccc(NNC(=O)CN(CCN(CC(=O)O)CC(=O)O)CC(=O)O)cc1
(4) Cc1ccc(S(=O)(=O)NO)cc1
Ordering criterion: Ki; begin with the maximum. The labels, placed in the requested order, form the answer.
4, 3, 1, 2
(4: 51000 nM, 3: 16000 nM, 1: 495 nM, 2: 1.3 nM)

(a) CCN(C)C(=S)SNCCc1ccc(S(N)(=O)=O)cc1
(b) NS(=O)(=O)c1ccc(N/C(S)=N\CCC(=O)O)cc1
Response body: label of entry with the larger Ki; valid values a , b . Your answer should be the label attached to the chosen record.
a
(a: 630 nM, b: 47 nM)

(I) CC(C)c1cc(-c2ccccc2)cc(C(C)C)[n+]1CC(=O)Nc1ccc(S(=O)(=O)/N=c2/sc(S(N)(=O)=O)nn2C)cc1
(II) Cc1cn(-c2cc(NC(=O)c3ccc(C)c(Nc4nccc(-c5cccnc5)n4)c3)cc(C(F)(F)F)c2)cn1
For the pair I and II , which member has the lower Ki number? Your answer should be the label attached to the chosen record.
I

(A) C[C@H](CCC(=O)Nc1ccc(S(N)(=O)=O)cc1)[C@H]1CC[C@H]2[C@@H]3C(=O)C[C@@H]4CC(=O)CC[C@]4(C)[C@H]3CC(=O)[C@]12C
(B) C[C@H](CCC(=O)OCCOc1ccc2nc(S(N)(=O)=O)sc2c1)[C@H]1CC[C@H]2[C@@H]3CC[C@@H]4C[C@H](O)CC[C@]4(C)[C@H]3CC[C@]12C
(C) NS(=O)(=O)c1ccc(NNSC(=S)N2CCOCC2)cc1
Ordering criterion: Ki; begin with the maximum. The labels, placed in the requested order, form the answer.
C, A, B
(C: 24000 nM, A: 3700 nM, B: 36 nM)
